B1: ZNF263 (parent)
chain: HLTRHQRTHTGEKPYKCTLCGENF

Variants of: B1
test.method.notes: protein stability index of a GFP-peptide fusion (GPS, HEK-293T) (PSI 1-6); higher = more stable;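 further: lentivirally expressed fusions sorted by FACS into six bins by GFP to DsRed ratio, PSI derived from sequencing read proportions per bin multiplied by bin number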
condition.context: c terminus: a fixed tail appended
Listed here are variants together with their documented protein stability index.
Lab note: record the figure alone, no unit after it.

Sample answers from the record:
Fill in the blank: the reported protein stability index of G11T is ____.
3.01

Fill in the blank: the reported protein stability index of T10I is ____.
3.13

***
Fill in the blank: the reported protein stability index of E22N is ____.
2.69
